Recorded TGI by entry
Test system: SR leukemia
Assay: NCI tumour cell line growth inhibition, 48 h
MEASUREMENT KIND: TGI

> print(dat)
                                   compound  observed
1  COP(=O)(O)C(N)Cc1c[nH]c2ccccc12 (stereo not drawn)  > 100 µM
2  O=[N+]([O-])c1ccc([N+]2=NC(c3ccccc3)=NN(c3ccccc3)C2)cc1  > 100 µM
3  Cc1ccc(S(=O)(=O)N/N=C2/CCC(C(C)(C)C)CC2Br)cc1 (stereo not drawn)  > 100 µM

----------
Recorded TGI by entry
System: CCRF-CEM leukemia
Assay: NCI tumour cell line growth inhibition, 48 h
MEASUREMENT KIND: TGI

> print(dat)
                                   compound    measured.target  measurement.kind  observed
1    N=c1oc2ccccc2cc1-c1nc2ccccc2c(=O)[nH]1  CCRF-CEM leukemia               TGI  > 100 µM
2                 COc1cc(CCN(C)C)cc(OC)c1OC  CCRF-CEM leukemia               TGI  > 100 µM
3  c1ccc(B2OCC(C3OB(c4ccccc4)OC4COB(c5ccccc5)OC43)O2)cc1 (stereo not drawn)  CCRF-CEM leukemia               TGI  > 100 µM

----------
Recorded TGI by entry
Tested on: IGROV1 ovarian
Experiment: NCI tumour cell line growth inhibition, 48 h
MEASUREMENT KIND: TGI

> print(dat)
                                   molecule  observed
1  O=C1C(=O)N(c2nccs2)C(=O)C(=O)C1c1nc2ccccc2s1  > 100 µM
2              CN[C@@H](C)[C@@H](O)c1ccccc1  > 100 µM
3  Nc1nccc2c1ncn2C1OC(CO)C(O)C1O (stereo not given)  > 100 µM
4  CSc1ccc(SC2c3ccc(C)cc3Oc3nc(N)c(C#N)c(N)c32)cc1 (stereo not given)   3.05 µM
5  Nc1cc(S(N)(=O)=O)ccc1SSc1ccc(S(N)(=O)=O)cc1N  > 100 µM

----------
Recorded TGI by entry
System: HOP-62 NSCLC
Assay: NCI tumour cell line growth inhibition, 48 h
MEASUREMENT KIND: TGI

> print(dat)
                                   compound  measurement.kind  observed
1  CC(NC(=O)C(=O)N/N=C1\C[C@@H](c2ccccc2)Nc2ccccc21)c1ccccc1 (stereo partly drawn)               TGI  > 100 µM
2  COc1ccc(CNc2nc3cc(C(F)(F)F)ccc3nc2-c2ccccc2)cc1OC               TGI  > 100 µM
3  COC([C@@H](OC(=O)c1ccccc1)[C@H](OC(=O)c1ccccc1)C(O)COC(=O)c1ccccc1)n1cc(C)c(=O)[nH]c1=O (stereo partly drawn)               TGI  > 100 µM

----------
Test system: M14 melanoma
Assay: NCI tumour cell line growth inhibition, 48 h
MEASUREMENT KIND: TGI

> print(dat)
                           structure.smiles  measured.target  observed
1     O=C(C(Cl)=C(N1CCCCC1)N1CCCCC1)C(Cl)Cl     M14 melanoma  > 100 µM
2  Cc1cc(N(CCC#N)CCC#N)ccc1/C=C1\SC(=S)NC1=O     M14 melanoma  > 100 µM
3  COc1ccc2c(CCNC(=O)/C=C/c3ccccc3)c(C(C)=O)[nH]c2c1[N+](=O)[O-]     M14 melanoma  > 100 µM

Data origin: PubChem BioAssay (NCI)
